This collection of values is drawn from patent US20230356105A1.

Assay: Use of additives to improve separation of Nd/Dy mixture by precipitation with L5 (Example 18)
Type: physicochemical
Conditions: additive 500 mM; 11 mM L5
Parameter Supernatant concentration [mM] Nd: see the listing below.
measure: Supernatant concentration [mM] Nd

INSERT INTO results (compound, reported_measurement) VALUES
  ('O=[N+]([O-])O [nitrate]', '0.14 mM'),
  ('CC(=O)O [acetate]', '4.62 mM'),
  ('N#C[S-].[Na+] [thiocyanate]', '0.36 mM'),
  ('O=CO [formate]', '0.22 mM'),
  ('Cl [chloride]', '0.11 mM'),
  ('O=S(=O)(O)O [sulfate]', '0.59 mM');

###

Reported Supernatant concentration [mM] Dy is given for each of the following molecules.
Experiment: Use of additives to improve separation of Nd/Dy mixture by precipitation with L5 (Example 18)
Format: physicochemical
Conditions: additive 5 mM; 11 mM L5
measure: Supernatant concentration [mM] Dy

INSERT INTO measurements (molecule, measure, reported_measurement) VALUES
  ('F [fluoride]', 'Supernatant concentration [mM] Dy', '1.21 mM'),
  ('O=C(O)CC(O)(CC(=O)O)C(=O)O [citrate]', 'Supernatant concentration [mM] Dy', '1.24 mM'),
  ('O=C(O)CO [glycolate]', 'Supernatant concentration [mM] Dy', '1.73 mM'),
  ('C[C@H](O)C(=O)O [l-lactate]', 'Supernatant concentration [mM] Dy', '1.59 mM'),
  ('CC(C)(O)C(=O)O [α-HIBA, alpha-hydroxyisobutyric acid]', 'Supernatant concentration [mM] Dy', '1.55 mM');

###

Here, each record is paired with measured Precipitate concentration [mM] Nd data.
Test: Use of additives to improve separation of Nd/Dy mixture by precipitation with L5 (Example 18)
Format: physicochemical
Conditions: additive 50 mM; 11 mM L5
measure: Precipitate concentration [mM] Nd (mM)

INSERT INTO assay_data (molecule, unit_of_measurement, reported_measurement) VALUES
  ('O=C(O)c1ccccc1', 'mM', 4.66),
  ('O=CO [formate]', 'mM', 5.17),
  ('CC(=O)O [acetate]', 'mM', 4.97),
  ('NCC(=O)O', 'mM', 4.90);

###

Experiment: Use of additives to improve separation of Nd/Dy mixture by precipitation with L5 (Example 18)
Format: physicochemical
Conditions: additive 500 mM; 11 mM L5
Overview of reported Supernatant concentration [mM] Dy across a group of molecules:
measure: Supernatant concentration [mM] Dy (mM)

INSERT INTO measurements (molecule, measure, reported_measurement) VALUES
  ('O=[N+]([O-])O [nitrate]', 'Supernatant concentration [mM] Dy', 0.82),
  ('O=S(=O)(O)O [sulfate]', 'Supernatant concentration [mM] Dy', 1.00),
  ('O=CO [formate]', 'Supernatant concentration [mM] Dy', 2.51),
  ('CC(=O)O [acetate]', 'Supernatant concentration [mM] Dy', 4.69),
  ('N#C[S-].[Na+] [thiocyanate]', 'Supernatant concentration [mM] Dy', 0.72),
  ('Cl [chloride]', 'Supernatant concentration [mM] Dy', 0.24);

###

Reported Supernatant concentration [mM] Nd by item:
Test: Use of additives to improve separation of Nd/Dy mixture by precipitation with L5 (Example 18)
Format: physicochemical
Settings: additive 10 mM; 11 mM L5
measure: Supernatant concentration [mM] Nd (mM)

INSERT INTO results (compound, reported_measurement) VALUES
  ('O=C(O)CC(O)(CC(=O)O)C(=O)O [citrate]', 0.25),
  ('O=C(O)CO [glycolate]', 0.20),
  ('F [fluoride]', 0.18),
  ('CC(C)(O)C(=O)O [α-HIBA, alpha-hydroxyisobutyric acid]', 0.19),
  ('C[C@H](O)C(=O)O [l-lactate]', 0.21);
